We begin with a simple list: items and their reported PBM binding z-score.
Test system: RARb homodimer (NR concentration 270 nM)
Assay: PBM binding z-score (relative to random genomic background probes); higher = stronger binding; sequences stand for … in GC…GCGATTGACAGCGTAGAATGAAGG
MEASUREMENT TYPE: PBM binding z-score

>  <CONSTRUCT SEQUENCE>
CTCGAAAGGTCGGTAGAGGTGAGTATACGGATAA

>  <ASSAY SYSTEM>
RARb homodimer (NR concentration 270 nM)

>  <RESULT>
2.52

$$$$
>  <CONSTRUCT SEQUENCE>
ACTATTAGCTGAGACGAGGGCAACCGATAGGTTG

>  <ASSAY SYSTEM>
RARb homodimer (NR concentration 270 nM)

>  <RESULT>
1.27

$$$$
>  <CONSTRUCT SEQUENCE>
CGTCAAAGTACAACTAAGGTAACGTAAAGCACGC

>  <ASSAY SYSTEM>
RARb homodimer (NR concentration 270 nM)

>  <RESULT>
1.16

$$$$
>  <CONSTRUCT SEQUENCE>
CGTCCCAGGTCATAGGAGGTCAGTGAAGACAGAT

>  <ASSAY SYSTEM>
RARb homodimer (NR concentration 270 nM)

>  <RESULT>
4.84

$$$$
>  <CONSTRUCT SEQUENCE>
CCTACAGGGCCACGAAAGGTCATTGATTCAGTGA

>  <ASSAY SYSTEM>
RARb homodimer (NR concentration 270 nM)

>  <RESULT>
5.01

$$$$
>  <CONSTRUCT SEQUENCE>
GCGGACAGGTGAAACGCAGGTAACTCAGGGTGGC

>  <ASSAY SYSTEM>
RARb homodimer (NR concentration 270 nM)

>  <RESULT>
0.239

$$$$
>  <CONSTRUCT SEQUENCE>
CAAACTAGGTTAAAGGTCAAAGTCGAGCCAACCA

>  <ASSAY SYSTEM>
RARb homodimer (NR concentration 270 nM)

>  <RESULT>
4.47

$$$$
>  <CONSTRUCT SEQUENCE>
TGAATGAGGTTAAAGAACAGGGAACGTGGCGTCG

>  <ASSAY SYSTEM>
RARb homodimer (NR concentration 270 nM)

>  <RESULT>
0.64

$$$$
>  <CONSTRUCT SEQUENCE>
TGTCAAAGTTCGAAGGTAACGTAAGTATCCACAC

>  <ASSAY SYSTEM>
RARb homodimer (NR concentration 270 nM)

>  <RESULT>
1.02

$$$$
>  <CONSTRUCT SEQUENCE>
CCAACGAGGGCATGAGTTGATAGCAAATGCCGAT

>  <ASSAY SYSTEM>
RARb homodimer (NR concentration 270 nM)

>  <RESULT>
0.406

$$$$
>  <CONSTRUCT SEQUENCE>
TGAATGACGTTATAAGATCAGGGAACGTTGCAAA

>  <ASSAY SYSTEM>
RARb homodimer (NR concentration 270 nM)

>  <RESULT>
-0.513

$$$$
>  <CONSTRUCT SEQUENCE>
CCTCGGAGGACTACAGGAGGTCAGAGCTGCCAGA

>  <ASSAY SYSTEM>
RARb homodimer (NR concentration 270 nM)

>  <RESULT>
2.9

$$$$
>  <CONSTRUCT SEQUENCE>
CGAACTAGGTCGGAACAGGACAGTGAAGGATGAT

>  <ASSAY SYSTEM>
RARb homodimer (NR concentration 270 nM)

>  <RESULT>
0.127

$$$$
>  <CONSTRUCT SEQUENCE>
GTGACTGGGGCAAAGCAGGTTACCATAAGGTTGG

>  <ASSAY SYSTEM>
RARb homodimer (NR concentration 270 nM)

>  <RESULT>
1.55

$$$$
